Would you kindly list IC50 for each of these compounds?
# System: Class-lla HDAC
# Experiment notes: Cell-based deacetylase assay in HT-29 cells, class-IIa selective substrate Boc-Lys-TFA
# Test conditions: whole-cell assay, 100 μM Boc-Lys-TFA (class-IIa selective substrate), 3 h at 37° C.
Only the number, expressed in µM, is required.

// IC50 lookup, compound = O=C(NC1CCN(Cc2ccccc2)C1)c1ccc(-c2noc(C(F)(F)F)n2)cc1F (centres unmarked) , result: 0.152

// IC50 lookup, compound = O=C(NC1CCN(Cc2ccc(F)cc2)C1)c1ccc(-c2noc(C(F)(F)F)n2)cc1 (centres unmarked) , result: 0.142

// IC50 lookup, compound = CCN1CCC(NC(=O)c2ccc(-c3noc(C(F)(F)F)n3)cc2F)C1 (centres unmarked) , result: 0.137

// IC50 lookup, compound = CCN1CCC(NC(=O)c2ccc(-c3noc(C(F)(F)F)n3)cc2)C1 (centres unmarked) , result: 0.091

// IC50 lookup, compound = CN1CCC(NC(=O)c2ccc(-c3noc(C(F)(F)F)n3)cc2F)C1 (centres unmarked) , result: 0.072

---

Would you kindly list pIC50 for each of these molecules?
# System: Class-lla HDAC
# Experiment notes: Cell-based deacetylase assay in HT-29 cells, class-IIa selective substrate Boc-Lys-TFA
# Test conditions: whole-cell assay, 100 μM Boc-Lys-TFA (class-IIa selective substrate), 3 h at 37° C.
Entry type: numeric. Quantity: pIC50, the -log10 of concentration in molar units.

// pIC50 lookup, molecule = COC[C@@H](NC(=O)c1ccc(-c2noc(C(F)(F)F)n2)cc1)C(=O)NCc1ccccc1 [NT-176] , result: 6.27

// pIC50 lookup, molecule = COC[C@@H](NC(=O)c1ccc(-c2noc(C(F)(F)F)n2)nc1)C(=O)NCc1ccccc1 [NT-192] , result: 5.77

// pIC50 lookup, molecule = O=C(NC1CCN(Cc2ccccc2I)C1)c1ccc(-c2noc(C(F)(F)F)n2)cc1 (centres unmarked) [NT3-127B] , result: 6.00

// pIC50 lookup, molecule = C[C@@H](CN1CC[C@H](c2ccccc2)C1)NC(=O)c1ccc(-c2noc(C(F)(F)F)n2)cc1 [NT3-16D] , result: 8.30

// pIC50 lookup, molecule = CN(Cc1ccccc1)C(=O)C(C)(C)CNC(=O)c1ccc(-c2noc(C(F)(F)F)n2)cc1 [NT3-119] , result: 6.03

// pIC50 lookup, molecule = O=C(NC1CCN(Cc2cccc(F)c2)C1)c1ccc(-c2noc(C(F)(F)F)n2)cc1F (centres unmarked) [NT3-77B] , result: 6.71

// pIC50 lookup, molecule = CN(Cc1ccccc1)C(=O)CCNC(=O)c1ccc(-c2noc(C(F)(F)F)n2)cc1 [NT-174] , result: 6.04

// pIC50 lookup, molecule = CC(C)(NCc1ccccc1)C(=O)CNC(=O)c1ccc(-c2noc(C(F)(F)F)n2)cc1 [NT2-44] , result: 6.11

---

# System: Class-lla HDAC
# Experiment notes: Cell-based deacetylase assay in HT-29 cells, class-IIa selective substrate Boc-Lys-TFA
# Test conditions: whole-cell assay, 100 μM Boc-Lys-TFA (class-IIa selective substrate), 3 h at 37° C.
pIC50: −log10 of the molar value.
Measured parameter: pIC50

// pIC50 lookup, molecule = O=C(NC1CCN(c2ccccc2)C1)c1ccc(-c2noc(C(F)(F)F)n2)cc1 (stereo not drawn) , result: < 4.70

// pIC50 lookup, molecule = O=C(NC1CCN(CCc2ccccc2)C1)c1ccc(-c2noc(C(F)(F)F)n2)cc1 (stereo not drawn) [NT3-106C] , result: < 5.00

// pIC50 lookup, molecule = C[C@H](CN(C)Cc1ccccc1)NC(=O)c1ccc(-c2noc(C(F)(F)Cl)n2)cc1 [NT3-89B] , result: < 5.70
